Attribution: ChEMBL document CHEMBL1155364

measurement protocol: Permeability across monolayer of human Caco-2 cell
Assay type: ADME, cell-based
stated conditions: read-out: permeability
endpoint: Papp (×10⁻⁶ cm/s)

Some compounds with recorded Papp:
CCCC1CN(C(=O)c2ccccc2)CCN1C(=O)C(=O)c1c[nH]c2cccc(F)c12 (stereo not drawn): 17.2
CC(C)C1CN(C(=O)C(=O)c2c[nH]c3cccc(F)c23)CCN1C(=O)c1ccccc1 (stereo not drawn): 16.1
CC1CN(C(=O)C(=O)c2c[nH]c3cccc(F)c23)CCN1C(=O)c1ccccc1 (stereo not drawn): 3.6

1 = CC(C)CC1CN(C(=O)C(=O)c2c[nH]c3cccc(F)c23)CCN1C(=O)c1ccccc1 (stereo not drawn)
2 = COc1cccc2[nH]cc(C(=O)C(=O)N3CCN(C(=O)c4ccccc4)C[C@H]3C)c12
3 = C[C@@H]1CN(C(=O)C(=O)c2c[nH]c3cccc(F)c23)C[C@H](C)N1C(=O)c1ccccc1
Arrange these compounds by their Papp, starting with the largest number. # output: labels, in the requested order
1, 3, 2
(1: 19 ×10⁻⁶ cm/s, 3: 7.3 ×10⁻⁶ cm/s, 2: 4.6 ×10⁻⁶ cm/s)

A = CCCCCC1CN(C(=O)c2ccccc2)CCN1C(=O)C(=O)c1c[nH]c2cccc(F)c12 (stereo not drawn)
B = C[C@@H]1CN(C(=O)c2ccccc2)[C@@H](C)CN1C(=O)C(=O)c1c[nH]c2cccc(F)c12
C = C[C@@H]1CN(C(=O)c2ccccc2)[C@H](C)CN1C(=O)C(=O)c1c[nH]c2cccc(F)c12 (relative stereo)
Task for the reader: rank each entry by its Papp, from the minimum upward. # output: labels, in the requested order
B, C, A

* * *

measurement protocol: Metabolic stability in rat liver microsomes after 10 mins
Type: ADME, Microsome
stated conditions: read-out: Stability
endpoint: remaining at 10 min (%)

Some molecules with recorded remaining at 10 min:
C[C@H]1CN(C(=O)c2ccccc2)CCN1C(=O)C(=O)c1c[nH]c2cccc(F)c12: 32
CCCC1CN(C(=O)C(=O)c2c[nH]c3cccc(F)c23)CCN1C(=O)c1ccccc1 (configuration not stated): 25
CCC1CN(C(=O)C(=O)c2c[nH]c3cccc(F)c23)CCN1C(=O)c1ccccc1 (configuration not stated): 25
C[C@@H]1CN(C(=O)C(=O)c2c[nH]c3cccc(F)c23)C[C@H](C)N1C(=O)c1ccccc1: 16
COc1cccc2[nH]cc(C(=O)C(=O)N3CCN(C(=O)c4ccccc4)CC3C)c12 (configuration not stated): 72

a = CC(C)CC1CN(C(=O)C(=O)c2c[nH]c3cccc(F)c23)CCN1C(=O)c1ccccc1 (configuration not stated)
b = CC(C)C1CN(C(=O)C(=O)c2c[nH]c3cccc(F)c23)CCN1C(=O)c1ccccc1 (configuration not stated)
Select the item whose remaining at 10 min value is smaller, choosing between a and b . The response must carry the label of the picked entry.
a

* * *

measurement protocol: Metabolic stability in rat liver microsomes after 10 mins
Assay type: ADME, Microsome
stated conditions: read-out: Stability
endpoint: remaining at 10 min (%)

Some molecules with recorded remaining at 10 min:
CCCC1CN(C(=O)c2ccccc2)CCN1C(=O)C(=O)c1c[nH]c2cccc(F)c12 (stereo not drawn): 11
CC1CN(C(=O)c2ccccc2)CCN1C(=O)C(=O)c1c[nH]c2cccc(F)c12 (stereo not drawn): 12
CCCCCC1CN(C(=O)C(=O)c2c[nH]c3cccc(F)c23)CCN1C(=O)c1ccccc1 (stereo not drawn): 3
COc1cccc2[nH]cc(C(=O)C(=O)N3CCN(C(=O)c4ccccc4)CC3)c12: 88
C[C@@H]1CN(C(=O)c2ccccc2)[C@H](C)CN1C(=O)C(=O)c1c[nH]c2cccc(F)c12 (relative stereo): 59
CCC1CN(C(=O)c2ccccc2)CCN1C(=O)C(=O)c1c[nH]c2cccc(F)c12 (stereo not drawn): 8
CC(C)(C)C1CN(C(=O)C(=O)c2c[nH]c3cccc(F)c23)CCN1C(=O)c1ccccc1 (stereo not drawn): 44
CC(C)(C)C1CN(C(=O)c2ccccc2)CCN1C(=O)C(=O)c1c[nH]c2cccc(F)c12 (stereo not drawn): 49

P = COc1cccc2[nH]cc(C(=O)C(=O)N3CCN(C(=O)c4ccccc4)C[C@@H]3C)c12
Q = C[C@@H]1CN(C(=O)c2ccccc2)C[C@H](C)N1C(=O)C(=O)c1c[nH]c2cccc(F)c12
Endpoint returns whichever of P and Q has the numerically higher remaining at 10 min. The response must carry the label of the picked entry.
P
(P: 75%, Q: 2%)
